Every entry's value here was drawn from PubChem BioAssay.

test: inhibition of 3D7 malaria parasite growth – strain 3D7 (AID 2306);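 further: 0% = DMSO wells and 100% = chloroquine plus artemisinin control wells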; details: P. falciparum 3D7 erythrocytic growth, LDH absorbance, 72 h; at 2 µM; stronger effect = higher value
endpoint: growth inhibition (%)

INSERT INTO assay_data (test_smiles, quantitative_result) VALUES
  ('Cc1noc(C)c1-c1cccc(CNCc2ccc(-c3ccc(-c4nc5c(C)cccc5[nH]4)cc3)cc2)c1', 102),
  ('Cc1cc(N[C@@H](CC(C)C)C(=O)NCc2cccs2)nc(NCCc2cccs2)n1', 92),
  ('COc1ccccc1NC(=S)N/N=C/c1ccc(O)cc1O', 89),
  ('CCNC(=O)c1ccc(-n2nc(C)cc2-c2ccccc2)cc1', 89),
  ('CCCCOc1cc2[nH]cc(C(=O)OCC)c(=O)c2cc1OCCCC', 97),
  ('CNC(=O)c1cnc(Nc2ccc(N3CCOCC3)cc2)nc1Nc1cccc(O)c1', 90),
  ('Cc1cc(N[C@@H](Cc2ccccc2)C(=O)NCCc2ccccc2)nc(NCCc2ccccc2)n1', 100);
